- Test: Pharmacokinetics in male Sprague-Dawley rats
- Format: in vivo
- Experimental parameters: male, Sprague-Dawley, plasma; rat, iv, 1 mg/kg; read-out: Vdss
Outcome measure: Vd (L/kg)

>>> result("CCOc1cnc2[nH]cc(C(=O)c3ccc(Oc4ccccc4F)cc3F)c2c1N[C@@H]1CC[C@@H](CO)OC1")
0.541

----------
- Test: Pharmacokinetics in male Sprague-Dawley rats
- Assay type: in vivo
- Experimental parameters: male, Sprague-Dawley, plasma; rat, po, 10 mg/kg
Outcome measure: half-life (h)

>>> result("COc1cnc2[nH]cc(C(=O)c3ccc(Oc4ccccc4F)cc3F)c2c1N[C@@H]1CC[C@@H](CO)OC1")
2.8

----------
- System tested: BTK (C481S) (Homo sapiens, UniProt Q06187, C481S)
- Sequence (Q06187 whole entry C481S): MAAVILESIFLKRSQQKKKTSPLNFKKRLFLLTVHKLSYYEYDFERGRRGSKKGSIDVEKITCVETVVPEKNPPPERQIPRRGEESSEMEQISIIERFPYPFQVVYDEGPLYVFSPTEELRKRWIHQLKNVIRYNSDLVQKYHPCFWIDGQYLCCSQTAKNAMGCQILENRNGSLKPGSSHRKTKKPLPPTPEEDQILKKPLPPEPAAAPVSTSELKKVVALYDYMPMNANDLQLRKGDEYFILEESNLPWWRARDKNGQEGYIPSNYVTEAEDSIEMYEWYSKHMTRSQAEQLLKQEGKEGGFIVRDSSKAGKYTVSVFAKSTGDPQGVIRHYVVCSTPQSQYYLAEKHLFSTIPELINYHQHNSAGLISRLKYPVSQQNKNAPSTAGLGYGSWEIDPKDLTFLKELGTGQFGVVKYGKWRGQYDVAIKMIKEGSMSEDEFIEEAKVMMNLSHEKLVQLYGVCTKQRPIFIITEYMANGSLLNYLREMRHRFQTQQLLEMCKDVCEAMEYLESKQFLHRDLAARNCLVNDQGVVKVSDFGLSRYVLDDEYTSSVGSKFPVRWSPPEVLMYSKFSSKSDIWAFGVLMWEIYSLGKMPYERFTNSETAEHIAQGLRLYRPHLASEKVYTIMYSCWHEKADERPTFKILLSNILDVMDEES
- Test: Kinase assay of BTK (C481S), [33P]-ATP filter-binding, at Reaction Biology Corporation
- Experimental parameters: 10 μM ATP, 20 min preincubation, 120 min reaction
pIC50: −log10 of the molar value.
Here, each record is paired with measured pIC50 data.
Outcome measure: pIC50

>>> result("CCOc1cnc2[nH]cc(C(=O)c3ccc(Oc4ccccc4)cc3C)c2c1N[C@@H]1CC[C@@H](CO)OC1 [Example 127]")
9.02
>>> result("CCOc1cnc2[nH]cc(C(=O)c3ccc(Oc4ccccc4)cc3Cl)c2c1N[C@@H]1CC[C@@H](CO)OC1 [Example 128]")
9.01
>>> result("CCOc1cnc2[nH]cc(C(=O)c3ccc(Oc4ccccc4F)cc3F)c2c1N[C@@H]1CC[C@@H](CO)OC1 [Example 71]")
9.11
>>> result("CCOc1cnc2[nH]cc(C(=O)c3ccc(Oc4ccccc4F)cc3)c2c1N[C@@H]1CC[C@@H](CO)OC1 [Example 63]")
9.00
>>> result("COc1cnc2[nH]cc(C(=O)c3ccc(Oc4ccccc4)cc3Cl)c2c1N[C@@H]1CC[C@@H](CO)OC1 [Example 27]")
8.95
>>> result("CCOc1cnc2[nH]cc(C(=O)c3ccc(Oc4ccccc4)cc3F)c2c1N[C@@H]1CC[C@@H](CO)OC1 [Example 176]")
9.34
>>> result("O=C(c1ccc(Oc2ccccc2)cc1Cl)c1c[nH]c2nccc(N[C@@H]3CC[C@@H](CO)OC3)c12 [Example 2]")
8.65
